System Name: T1, recombinant human Nodal (human, UniProt Q96S42 238-347)
T1 construct: Nodal, human, recombinant (RnD Systems); source: bought: RnD Systems
T1 sequence (looked up): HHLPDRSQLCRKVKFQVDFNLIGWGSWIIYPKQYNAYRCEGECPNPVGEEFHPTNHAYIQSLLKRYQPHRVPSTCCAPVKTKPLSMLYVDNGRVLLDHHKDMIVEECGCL
Assay Protocol: SPR; Biacore 2000; 200-300 RU of Fc fusion captured by anti-human IgG (Fc) antibody on a CM5 chip; concentration series of ligand injected at 50 ul/min; 25 C; HBS-EPS (0.01 M HEPES, 0.5 M NaCl, 3 mM EDTA, 0.005% Tween 20, pH 7.4); 1:1 Langmuir model with mass transport; Kd = kd/ka
Test Context: both partners purified
Parameter Measured: Kd

Binder	Value
human ALK4-hIgg-Fc (Fc fusion, UniProt P36896 24-110, looked up, signal peptide in the construct; extracellular domain of human ALK4 (1-110), joined to human IgG1 Fc by a 22 amino acid linker with a TEV site, a glycine/serine rich region and a FLAG-tag; Synthetic gene from GeneArt; also called ALK4-Fc; source: CHO cells, purified) SGPRGVQALLCACTSCLQANYTCETDGACMVSIFNLDGMEHHVRTCIPKVELVPAGKPFYCLSSEDLRNTHCCYTDYCNRIDLRVPS	~15 nM
human ACTRIIB-hIgg-Fc (Fc fusion, UniProt Q13705 19-120, looked up, signal peptide in the construct; extracellular domain of human ActRIIB (1-120), joined to human IgG1 Fc by a 22 amino acid linker with a TEV site, a glycine/serine rich region and a FLAG-tag; Synthetic gene from GeneArt; also called ACTRIIB-Fc; source: CHO cells, purified from conditioned medium (Protein A, SEC)) SGRGEAETRECIYYNANWELERTNQSGLERCEGEQDKRLHCYASWRNSSGTIELVKKGCWLDDFNCYDRQECVATEENPQVYFCCCEGNFCNERFTHLPEAG	~10 nM
